test system: PANC-1; assay: cells; details: Homo sapiens
pIC50: −log10 of the molar value.
readout-type: pIC50

compound | number
CCN1CCN(Cc2ccc(Nc3ncc(F)c(-c4cc(F)c5nc(C)n(C(C)C)c5c4)n3)nc2)CC1 [ABEMACICLIB] | 6.15

###

test: in vitro; settings: mouse, microsomes

line-notation | microsomal CLint at 1 h (µL/min/mg)
CCN1CCN(Cc2ccc(Nc3ncc(F)c(-c4cc(F)c5nc(C)n(C(C)C)c5c4)n3)nc2)CC1 | 168

###

test: in vivo; settings: BALB/c, mouse, iv, 3 mg/kg
readout-type: Vd at 24 h (L/kg)

line-notation | value-units | number
CCN1CCN(Cc2ccc(Nc3ncc(F)c(-c4cc(F)c5nc(C)n(C(C)C)c5c4)n3)nc2)CC1 | L/kg | 8.24
